System: MDA-MB-435 melanoma
Assay: NCI-60 one-dose screen, 48 h (100 = growth as untreated, 0 = no growth, -100 = all killed)
Settings: 10 µM unless noted
About 83,000 compounds went through this panel and 20% of them were active in at least one assay; those are over-represented in the sample as a whole.
Listed here: items and their measured growth.

compound: CC(C)=CCc1cc2c(cc1O)C1=C(C(=O)C3=C(NCCS3(=O)=O)C1=O)C(C=C(C)C)O2 (stereo not given)
measure.unit: %
growth: -62.3

compound: CCc1cc2c(c3ccc(C(=O)CBr)cc13)CCCC2
measure.unit: %
growth: 107

compound: CCN1CCN(Cc2ccc(NC(=O)Nc3nc(-c4cc(OC)c(OC)c(OC)c4)cs3)cc2C(F)(F)F)CC1
measure.unit: %
growth: -51.4

compound: O=C1NC(=O)[C@@H](c2cn3c4c(cccc24)CCC3)[C@@H]1c1c[nH]c2ccccc12
measure.unit: %
growth: -13.2

compound: COc1cc2c(cc1OCCCCCN1CCN(c3ncnc4ccccc34)CC1)N=CC1CCCN1C2=O (stereo not given)
measure.unit: %
growth: -72.1

###

Test system: SF-268 CNS
Test: NCI-60 one-dose screen, 48 h (100 = growth as untreated, 0 = no growth, -100 = all killed)
Details: 10 µM unless noted
The panel holds about 83,000 compounds, 20% with a hit somewhere; the sample as a whole holds those more often.
endpoint.label: growth (%)

molecule: COC(=O)[C@@H](OC)[C@@H]1Cc2cc3cc(OC4CC(OC5CC(O)C(O)C(C)O5)C(O)C(C)O4)c(C)c(O)c3c(O)c2C(=O)[C@H]1OC1CC(OC2CC(OC3CC(C)(O)C(O)C(C)O3)C(O)C(C)O2)C(O)C(C)O1 (some centres undefined)
endpoint.label: growth
reading: 3.86
--
molecule: COc1ccc(-c2nc(N)ncc2Oc2ccccc2OC)c(O)c1
endpoint.label: growth
reading: 46.3
--
molecule: CCN1CCN(Cc2ccc(Cc3ncc(F)c(-c4cc(F)c5nc(C)n(C(C)C)c5c4)n3)nc2)CC1
endpoint.label: growth
reading: 54.4
--
molecule: CC1(O)CC(c2nc(-c3ccc4ccc(-c5ccccc5)nc4c3)c3c(N)nccn23)C1 (centres undefined)
endpoint.label: growth
reading: 44.1
--
molecule: O=C(Nc1nc2cccc(-c3ccc(CN4CCS(=O)(=O)CC4)cc3)n2n1)C1CC1
endpoint.label: growth
reading: 70.7
--
molecule: CC(C)[C@@H]1CC[C@]2(CO2)[C@@H]2C(=O)OCC(C(=O)O)=C[C@H]21
endpoint.label: growth
reading: 1.21
--
molecule: Clc1nc(Cl)c2ncn(CC#CCn3cnc4c(Cl)nc(Cl)nc43)c2n1
endpoint.label: growth
reading: -37.8
--
molecule: O=c1nc2c(-c3nc4ccccc4s3)n[nH]n2c2sc3c(c12)CCCC3
endpoint.label: growth
reading: 97.6
--
molecule: CCOc1cc2ncc(C#N)c(Nc3ccc(F)c(Cl)c3)c2cc1NC(=O)/C=C/CN(C)C
endpoint.label: growth
reading: -19.9
--
molecule: Clc1ccc2c(NCCNc3nc(N4CCCC4)nc4ccccc34)ccnc2c1
endpoint.label: growth
reading: 16.2
--
molecule: Cc1cc(Nc2cc(N3CCN(C)CC3)nc(Sc3ccc(NC(=O)C4CC4)cc3)n2)n[nH]1
endpoint.label: growth
reading: 48.6
--
molecule: O=C(Cc1ccc(-c2ccc(OCCN3CCOCC3)cc2)cn1)NCc1ccccc1
endpoint.label: growth
reading: 29.6
--
molecule: CCc1cnn2c(NCc3ccc[n+]([O-])c3)cc(N3CCCC[C@H]3CCO)nc12
endpoint.label: growth
reading: 3.65
--
molecule: Clc1ccc(C(Cn2ccnc2)OCc2ccsc2Cl)c(Cl)c1 (centres undefined)
endpoint.label: growth
reading: 67.5
--
molecule: Cc1ccc(-c2nc3ccc(Cl)cn3c2NC2CCCCC2)o1
endpoint.label: growth
reading: 80
--
molecule: O=C(NOC[C@H](O)CO)c1ccc(F)c(F)c1Nc1ccc(I)cc1F
endpoint.label: growth
reading: 60.1
--
molecule: [2H]C1([2H])[C@H](C)O[C@H](C)C([2H])([2H])N1c1ccc(NC(=O)c2cccc(-c3ccc(OC(F)(F)F)cc3)c2C)cn1
endpoint.label: growth
reading: 71.6
--
molecule: CN1CCC(COc2cnc(-c3cccc(Cn4nc(-c5cccc(C#N)c5)ccc4=O)c3)nc2)CC1
endpoint.label: growth
reading: 67.2
--
molecule: N#Cc1cc2[nH]c3ccc(OC(F)(F)F)cc3c2oc1=O
endpoint.label: growth
reading: 75.5
